Hey, just so you know, these numbers are from paper PMC11089510.

Test System: recombinant human NUDT14 (Homo sapiens, UniProt O95848)
Sequence (O95848 whole entry): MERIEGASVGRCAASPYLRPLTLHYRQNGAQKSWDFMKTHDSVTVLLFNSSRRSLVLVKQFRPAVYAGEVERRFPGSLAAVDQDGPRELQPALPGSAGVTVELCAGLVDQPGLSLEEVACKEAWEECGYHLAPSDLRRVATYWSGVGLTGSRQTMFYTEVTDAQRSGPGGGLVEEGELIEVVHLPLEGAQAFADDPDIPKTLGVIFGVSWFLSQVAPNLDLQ
Assay Summary: NUDT14 catalytic assay (AMP-Glo)
Type: biochemical
Condition Parameters: 1 nM NUDT14, 10 μM ADPr, 1 h, rt
Readout Label: IC50 (µM)

Worked cases, answers included:
compound=C=CC(=O)N1CCC=C(c2nn(C3CCN(C)CC3)c3ncnc(N)c23)C1 test_value=3.72
compound=C=CC(=O)NCc1ccc(-c2nn(C3CCN(C)CC3)c3ncnc(N)c23)cc1 test_value=1.64

(I) Nc1ncnc2[nH]nc(-c3ccc(Oc4ccccc4)cc3)c12
(II) Cn1nc(-c2ccc(Oc3ccccc3)cc2)c2c(N)ncnc21
Incoming: Please let me know which one, I or II , has a lower measured IC50 value. Field: selected label. Fill in the label of the entry you choose.
Outgoing: II

====

Test System: purified human NUDT14 protein (Homo sapiens)
Construct: 6xHis tag followed by TEV site (N, cleaved yes); made in house; host or cells: Escherichia coli (DE3)
Sequence (O95848 whole entry): as the sequence (O95848 whole entry) above
Assay Summary: biochemical
Readout Label: pKd
Conceptually, pKd converts a concentration in mol/L into minus its log10.

Incoming: Which pKd is listed for C=CC(=O)N1CCC[C@@H](n2nc(-c3ccc(Oc4ccccc4)cc3)c3c(N)ncnc32)C1 ?
Outgoing: 5.72

====

Test System: NUDT5 (Homo sapiens, UniProt Q9UKK9)
Assay Summary: biochemical
Readout Label: Kd (µM)
Quick reminder: number only, in µM, skip the unit.

Incoming: Which Kd is listed for C=CC(=O)N1CCC[C@@H](n2nc(-c3ccc(Oc4ccccc4)cc3)c3c(N)ncnc32)C1 ?
Outgoing: 0.209

====

Test System: NUDT5 (Homo sapiens)
Assay Summary: NUDT5 catalytic assay (AMP-Glo)
Format: biochemical
Condition Parameters: read-out: NUDT5 IC50; AMP-Glo, 1 nM NUDT5, 10 μM ADPr, 20 min, rt
Readout Label: IC50 (nM)
Quick reminder: number only, in nM, skip the unit.

Incoming: Which IC50 is listed for C=CC(=O)N1CCC[C@@H](n2nc(-c3ccc(Oc4ccccc4)cc3)c3c(N)ncnc32)C1 [Compound 1, ibrutinib, reference compound] ?
Outgoing: 837

====

Test System: NUDT9 (Homo sapiens)
Sequence (Q9BW91 1-350): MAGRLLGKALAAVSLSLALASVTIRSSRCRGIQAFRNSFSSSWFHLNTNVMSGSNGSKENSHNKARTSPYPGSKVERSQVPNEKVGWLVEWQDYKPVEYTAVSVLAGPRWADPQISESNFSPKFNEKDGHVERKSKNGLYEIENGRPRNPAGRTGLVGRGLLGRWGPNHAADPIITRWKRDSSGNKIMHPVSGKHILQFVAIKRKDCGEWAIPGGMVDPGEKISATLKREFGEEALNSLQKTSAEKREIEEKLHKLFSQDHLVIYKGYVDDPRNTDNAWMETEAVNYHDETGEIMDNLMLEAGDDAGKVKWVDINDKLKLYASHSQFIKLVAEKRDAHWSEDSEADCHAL
Assay Summary: biochemical
Readout Label: Kd

Incoming: Which Kd is listed for C=CC(=O)N1CCC[C@@H](n2nc(-c3ccc(Oc4ccccc4)cc3)c3c(N)ncnc32)C1 [Compound 1, ibrutinib] ?
Outgoing: > 100 µM

====

Target sequence: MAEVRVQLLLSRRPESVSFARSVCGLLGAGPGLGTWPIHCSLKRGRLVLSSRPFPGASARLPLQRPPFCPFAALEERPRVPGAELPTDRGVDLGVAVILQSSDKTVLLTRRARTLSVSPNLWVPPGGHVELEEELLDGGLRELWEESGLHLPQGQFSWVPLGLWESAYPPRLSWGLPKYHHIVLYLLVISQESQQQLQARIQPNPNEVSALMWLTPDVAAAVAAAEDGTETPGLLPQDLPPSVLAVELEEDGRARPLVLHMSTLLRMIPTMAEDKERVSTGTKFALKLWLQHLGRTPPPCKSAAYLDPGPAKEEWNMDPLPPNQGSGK
pKd: −log10 of the molar value.
Readout Label: pKd

Incoming: Which pKd is listed for C=CC(=O)N1CCC[C@@H](n2nc(-c3ccc(Oc4ccccc4)cc3)c3c(N)ncnc32)C1 ?
Outgoing: < 4.00

====

Test System: NUDT18 (Homo sapiens, UniProt Q6ZVK8)
Sequence (Q6ZVK8 whole entry): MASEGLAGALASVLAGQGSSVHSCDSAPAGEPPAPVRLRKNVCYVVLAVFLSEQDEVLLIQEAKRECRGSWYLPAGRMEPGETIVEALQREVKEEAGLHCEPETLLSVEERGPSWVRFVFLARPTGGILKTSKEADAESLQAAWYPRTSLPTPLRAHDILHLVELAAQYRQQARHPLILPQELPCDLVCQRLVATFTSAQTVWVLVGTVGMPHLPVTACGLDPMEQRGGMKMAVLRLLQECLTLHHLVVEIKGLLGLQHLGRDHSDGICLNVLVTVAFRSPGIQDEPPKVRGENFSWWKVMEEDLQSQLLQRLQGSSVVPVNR
Readout Label: Kd

Incoming: Which Kd is listed for C=CC(=O)N1CCC[C@@H](n2nc(-c3ccc(Oc4ccccc4)cc3)c3c(N)ncnc32)C1 ?
Outgoing: > 100 µM

====

Test System: UniProt:Q9UKK9
Assay Summary: NUDT5 catalytic assay (AMP-Glo)
Format: biochemical
Readout Label: IC50

smiles_structure=C=CC(=O)N1CCC(c2nn(C3CCN(C)CC3)c3ncnc(N)c23)CC1 readout_label=IC50 test_value="> 50 µM"

Next item in the queue.
Incoming: Which IC50 is listed for C=CC(=O)N1CCC=C(c2nn(C3CCN(C)CC3)c3ncnc(N)c23)C1 ?
Outgoing: > 50 µM

====

Test System: NUDT16 (Homo sapiens, UniProt Q96DE0)
Sequence (Q96DE0 whole entry): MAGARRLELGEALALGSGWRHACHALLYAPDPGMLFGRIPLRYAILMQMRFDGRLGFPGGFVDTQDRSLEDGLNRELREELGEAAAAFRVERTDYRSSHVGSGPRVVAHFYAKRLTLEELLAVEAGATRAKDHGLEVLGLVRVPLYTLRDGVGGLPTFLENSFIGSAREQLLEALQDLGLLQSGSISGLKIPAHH
pKd: −log10 of the molar value.
Readout Label: pKd

Incoming: Please state recorded pKd (tested on NUDT16 (Homo sapiens, UniProt Q96DE0)) of C=CC(=O)N1CCC[C@@H](n2nc(-c3ccc(Oc4ccccc4)cc3)c3c(N)ncnc32)C1
Outgoing: < 4.00

====

Test System: NUDT15 (Homo sapiens, UniProt Q9NV35)
Sequence (Q9NV35 whole entry): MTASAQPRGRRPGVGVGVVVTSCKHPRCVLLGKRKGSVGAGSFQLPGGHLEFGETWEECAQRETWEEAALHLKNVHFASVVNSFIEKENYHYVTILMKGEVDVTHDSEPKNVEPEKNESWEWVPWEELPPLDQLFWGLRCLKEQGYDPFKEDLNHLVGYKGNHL
Readout Label: Kd

Incoming: Please state recorded Kd (tested on NUDT15 (Homo sapiens, UniProt Q9NV35)) of C=CC(=O)N1CCC[C@@H](n2nc(-c3ccc(Oc4ccccc4)cc3)c3c(N)ncnc32)C1
Outgoing: > 100 µM

====

Test System: UniProtKB Q9BQG2
Sequence (Q9BQG2 whole entry): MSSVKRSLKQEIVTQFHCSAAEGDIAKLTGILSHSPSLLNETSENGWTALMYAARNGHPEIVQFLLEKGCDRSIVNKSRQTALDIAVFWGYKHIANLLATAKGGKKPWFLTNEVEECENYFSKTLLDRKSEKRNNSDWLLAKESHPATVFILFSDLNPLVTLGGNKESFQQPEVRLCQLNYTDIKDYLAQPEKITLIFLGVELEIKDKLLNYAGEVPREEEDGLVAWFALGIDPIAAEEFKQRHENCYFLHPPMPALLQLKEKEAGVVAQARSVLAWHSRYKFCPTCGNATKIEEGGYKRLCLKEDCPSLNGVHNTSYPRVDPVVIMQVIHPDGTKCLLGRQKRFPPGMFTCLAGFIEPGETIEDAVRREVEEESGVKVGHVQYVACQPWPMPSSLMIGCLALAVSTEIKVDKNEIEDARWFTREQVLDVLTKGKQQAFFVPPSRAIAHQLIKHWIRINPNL
Readout Label: Kd

Incoming: Which Kd is listed for C=CC(=O)N1CCC[C@@H](n2nc(-c3ccc(Oc4ccccc4)cc3)c3c(N)ncnc32)C1 [Compound 1, ibrutinib] ?
Outgoing: > 100 µM

====

Test System: recombinant human NUDT14 (Homo sapiens)
Assay Summary: NUDT14 catalytic assay (AMP-Glo)
Condition Parameters: 1 nM NUDT14, 10 μM ADPr, 1 h, rt
Readout Label: IC50

compound=C=CC(=O)N1CC=C(c2nn(C3CCN(C)CC3)c3ncnc(N)c23)CC1 test_system="recombinant human NUDT14 (Homo sapiens)" test_value="> 50 µM"
compound=C=CC(=O)N1CCC(c2nn(C3CCN(C)CC3)c3ncnc(N)c23)CC1 test_system="recombinant human NUDT14 (Homo sapiens)" test_value="> 50 µM"

Next item in the queue.
Incoming: Which IC50 is listed for C=CC(=O)N1CCC[C@@H](n2nc(-c3ccc(Oc4ccccc4)cc3)c3c(N)ncnc32)C1 [Compound 1, ibrutinib, reference compound] ?
Outgoing: 0.99 µM
